Entry source: PubChem BioAssay (NCI)

Test system: SK-MEL-2 melanoma
protocol_text: NCI tumour cell line growth inhibition, 48 h
Property: TGI; scope: individual compounds
property_label: TGI (µM)

- FC(F)(F)c1ccccc1N1CCN(c2nc(-c3cccs3)nc3ccc(Br)cc23)CC1: 74.1
- C=C1C(=O)O[C@H]2[C@H]1CC/C(COC(=O)NCc1ccc(Cn3c(=O)sn(CCCCl)c3=O)cc1)=C\CC[C@@]1(C)O[C@@H]21: 17.4
- Cc1c2c(cc3c1[nH]c1ccccc13)C=NCC2: 21.1

* * *

Test system: BT-549 breast
protocol_text: NCI tumour cell line growth inhibition, 48 h
property_label: TGI

* CNc1ccc(-c2nc3cc(C)ccc3o2)cc1 | > 100 µM
* O=C(/C=C/c1ccsc1)c1ccco1 | 33.2 µM
* O=c1c(SSc2coc3cc(F)ccc3c2=O)coc2cc(F)ccc12 | > 100 µM
* COc1cc(C2SCC(=O)N2c2ccc(-n3c(-c4ccccc4)nc4ccccc4c3=O)cc2)ccc1O (stereo unspecified) | > 100 µM
* c1ccc(C2=Nc3nc4ccccc4n3C(c3ccccc3)C2)cc1 (stereo unspecified) | > 100 µM
* NC1CCN(c2nc(Nc3cccc(C(F)(F)F)c3)c3c(=O)[nH]ccc3n2)CC1 | 3 µM

* * *

Test system: EKVX NSCLC
protocol_text: NCI tumour cell line growth inhibition, 48 h
Property: TGI; scope: individual compounds
property_label: TGI

* O=C(Nc1c[nH]c(=O)[nH]c1=O)C(Cl)Cl | > 100 µM
* CC(C)=CC(=O)O[C@H]1C(=O)O[C@@H]2C[C@H]3[C@H](C)C(=O)C(O[C@@H]4O[C@H](CO)[C@@H](O)[C@H](O)[C@H]4O)=C[C@]3(C)[C@H]3[C@@H](O)[C@H](O)[C@]4(C(=O)O)OC[C@]32[C@@H]14 | > 100 µM
* O=C1/C(=C\c2cccc(Oc3ccccc3)c2)S(=O)(=O)C(c2ccccc2)N1c1ccccc1Cl (stereo unspecified) | 92.2 µM
* O=C1C=C(Br)C(=O)C12CCc1ccccc12 (stereo unspecified) | 62 µM
* COC1=C(N=[N+]=[N-])C(=O)c2ncccc2C1=O | 17.3 µM
* C1CCN(c2nsc(N3CCCCC3)n2)CC1 | > 100 µM
* COc1ccccc1C1SCC(=O)N1c1ccc(-c2ccc(-n3c(-c4ccccc4)nc4ccccc4c3=O)cc2)cc1 (stereo unspecified) | > 100 µM
* CC(C)CCC[C@@H](C)[C@H]1CCC2C3CC=C4C[C@@H](Oc5c6ccccc6nc6ccccc56)CCC4C3CCC21 (stereo partly specified) | > 50 µM
* COC(=O)c1c2c(c(C)[n+]([O-])c1C)C(=O)C=C(NCc1ccc(F)c(F)c1)C2=O | 2.26 µM
* COc1cc2c3c(n(CCCNCCN)c(=O)c2cc1OC)-c1cc2c(cc1C3=O)OCO2 | 17.2 µM
* O=C(CN1CCN(Cc2ccccc2)CC1)N1CCCn2c1nc1ccccc1c2=O | > 100 µM
* COc1cccc(NC(=O)CC(=O)N2N=C(N(CCC#N)c3ccccc3C)CC2c2ccccc2)c1 (stereo unspecified) | > 100 µM
* c1ccc(C2=Nc3nc4ccccc4n3C(c3ccccc3)C2)cc1 (stereo unspecified) | > 100 µM
* Clc1ccc(Cc2nc3ccc(CCN4CCN(c5ccccc5)CC4)cc3[nH]2)cc1 | 79.9 µM
* ClC(Cl)c1nc(-c2cccnc2)n2nc(-c3ccccc3)cc2n1 | 6.21 µM
* Clc1ccc2sc(-n3ccc4ccccc43)nc2c1 | > 100 µM
* N#Cc1c(-c2ccccc2)cc(-c2ccc(Nc3nc(Nc4ccc(Cl)cc4)nc(Nc4ccc(Cl)cc4)n3)cc2)nc1N | 48.8 µM
* C=CCOc1ccccc1N=N/C(C#N)=N\Nc1ccccc1OCC=C | > 100 µM
* NC(=O)c1nnc2cc(F)ccc2c1N | > 100 µM
* CCCCCC(=O)N[C@@H](c1ccccc1)C(O)C(=O)OC1C[C@@]2(O)C(OC(=O)c3ccccc3)C3[C@](C)(C(=O)[C@H](O)C(=C1C)C2(C)C)C(OC1OCC(O)C(O)C1O)C[C@H]1OC[C@@]31OC(C)=O (stereo partly specified) | > 100 µM
* Nc1ccc2c(c1)NCCN2 | > 100 µM
* CCOC(=O)C1(Cc2ccccc2)CCCCCN1 (stereo unspecified) | > 100 µM
* COc1cc(OC)c2c(O)c3c(cc2c1)CC(C)(C)CC3=O | > 100 µM
* O=C1O/C(=C(\Br)c2cccc3ccccc23)c2ccccc21 | > 59.7 µM
* Cc1ccc(N=Nc2c(O)ccc3cc(S(=O)(=O)O)ccc23)c(C)c1 | > 100 µM
* Cn1c(C(C#N)c2nc(Cl)ncc2Br)nc2ccccc21 (stereo unspecified) | > 100 µM
* COc1ccc2c(Nc3ccc(NS(C)(=O)=O)cc3)c3ccccc3nc2c1 | 8.2 µM
* Clc1cc2c(c(CSC3=NCN(CC4CC4)CN3)c1)OCOC2 | 53.4 µM
* C=C=C(CC)C(C(=O)OC)N(CC)CC (stereo unspecified) | > 100 µM
* C=C1C(=O)O[C@H]2[C@H]1CC/C(COC(=O)NCc1ccc(Cn3c(=O)sn(CCCCl)c3=O)cc1)=C\CC[C@@]1(C)O[C@@H]21 | 12.2 µM
* O=C1NC(N/N=C\C(O)C(O)C(O)CO)=N/C1=C/c1ccc(Cl)cc1 (stereo unspecified) | > 100 µM
* CN1CCCN(C)C1c1cc([N+](=O)[O-])ccc1O | > 100 µM
* C1CSCCCSCCSCCCSC1 | > 100 µM
* COc1ccc(C(N)=O)cc1N=NN(C)C | > 100 µM
* CN(C)N1C(=O)c2ccccc2NC1c1ccccc1 (stereo unspecified) | > 100 µM
* CC(C)C(C/C=C1\CC(CO)(COC(=O)c2ccccc2)OC1=O)C(C)C (stereo unspecified) | 29.8 µM
* COC(=O)c1ccccc1C#CC#Cc1ccccc1C(=O)OC | > 10 µM
* NCCCn1c2ccccc2c2c3c(c4c(c21)CCC(O)CC4)C(=O)NC3=O (stereo unspecified) | 23.7 µM
* CC(C)[C@@H]1CC[C@@H](C)C[C@H]1OC(=O)/C=C1/C2C=CC(O2)C1C(=O)O[C@@H]1C[C@H](C)CC[C@H]1C(C)C (stereo partly specified) | > 100 µM
* CN(C)C(N)=NC#N | > 100 µM
* O=c1[nH]c(=O)n(C2OC(CO)C(O)C2O)c2c1CCCC2 (stereo unspecified) | > 100 µM
